Values were extracted from paper PMC4552634.

Tested on: P. falciparum stage V gametocytes
Parameters: BacTiter-Glo ATP luminescence viability of purified stage V gametocytes in 384-well plates, per cent inhibition versus DMSO
Details: 48 h, 5 µM; inhibitor
About 3,200 (25%) of roughly 13,000 compounds showed an effect of 50% or more. This is one part of the list.
Property: % Inhibition; scope: individual compounds
Give the number; % is assumed, so skip it.

COc1ccc(Nc2nc(C)cc(NCc3ccc(-c4c(C)noc4C)cc3)n2)cc1 [TCMDC-134024] :: -1.002
CCNc1cc(C)nc(Nc2ccc(NC(=O)Cc3ccc(OC)cc3)cc2)n1 [TCMDC-124983] :: 15.74
Cc1cc(NCCC(=O)Nc2ccccc2)nc(NCCc2cccs2)n1 [TCMDC-134872] :: 26.35
COc1ccccc1CCNc1nc(C)cc(NCCC(=O)Nc2ccccc2)n1 [TCMDC-134800] :: 76.83

Let us examine a further case.
Per the record, COc1ccc(NC(=O)CCNc2cc(C)nc(NCc3ccccc3C)n2)cc1 [TCMDC-134899] has % Inhibition of 34.68

---

Reported % Inhibition values for the following compounds.
System: P. falciparum stage V gametocytes
Set-up: BacTiter-Glo ATP luminescence viability of purified stage V gametocytes in 384-well plates, per cent inhibition versus DMSO
Details: 48 h, 5 µM; inhibitor
Out of some 13,000 compounds screened, about 3,200 (25%) showed an effect of 50% or more. The list shows a part of the results.
Write the answer as a number in %, unit excluded.

// known answers, use as guide
c1ccc(Oc2ccc(Nc3ccnc4cc(-c5ccc(CNCCN6CCOCC6)o5)ccc34)cc2)nc1 [TCMDC-138423] :: -53.28
N#Cc1cccc(-c2cccc(C(=O)NC3CCC(CCN4CCc5ccc(C#N)cc5CC4)CC3)c2)c1 (stereo not shown) [TCMDC-139681] :: -20.07
O=c1[nH]ccc2nc(N[C@@H]3CCNC3)nc(Nc3ccc4c(c3)S(=O)(=O)CC4)c12 [TCMDC-135044] :: 71.11

With P. falciparum stage V gametocytes as the test system, Cc1ccc(O)cc1Nc1ccnc2cc(-c3ccccc3)ccc12 [TCMDC-138295] showed % Inhibition of -25.3

So the reported % Inhibition for CN1CCC(NCc2cccc(-c3ccc(S(=O)(=O)NCCc4ccccn4)c(F)c3)c2)CC1 [TCMDC-132220] , on P. falciparum stage V gametocytes, turned out to be 17

Let me check: O=c1[nH]ccc2nc(N[C@@H]3CCNC3)nc(Nc3cc(Cl)cc(Cl)c3)c12 [TCMDC-135052] , system P. falciparum stage V gametocytes, measured % Inhibition is 102.4

I looked up Cc1cccc(Nc2nc(N[C@@H]3CCCNC3)nc3cc[nH]c(=O)c23)c1 [TCMDC-134835] and its % Inhibition for P. falciparum stage V gametocytes was -44.23

Noted % Inhibition for Cn1c(N)c(C(=O)CSc2ncc(-c3ccc(F)cc3)n2Cc2ccccc2)c(=O)n(C)c1=O [TCMDC-125101] , tested on P. falciparum stage V gametocytes: 12.63

---

Recorded % Inhibition values for a group of compounds are listed next.
Test system: P. falciparum stage V gametocytes
Design: BacTiter-Glo ATP luminescence viability of purified stage V gametocytes in 384-well plates, per cent inhibition versus DMSO
Settings: 48 h, 5 µM; inhibitor
Hit rate of the full screen: of about 13,000 compounds, about 3,200 (25%) showed an effect of 50% or more. This is one part of the list.
Put your answer as a value accompanied by its unit after it.

Nc1cc(-c2cc3c(OCc4ccccc4)cccc3[nH]2)ccn1 [TCMDC-134290] :: -55.8%
Cc1[nH]c(C)c(C(F)(F)F)c(=O)c1-c1ccc(Oc2ccc(OC(F)(F)F)cc2)cc1 [TCMDC-135444] :: 33.82%
Cc1cc(=O)c(-c2ccc(OCc3ccc(OC(F)(F)F)cc3)cc2)c(C)[nH]1 [TCMDC-132123] :: 25.03%
Cc1nc2c(c(O)c1Cl)-c1ccc(Oc3cccc(C(F)(F)F)c3)cc1C2=O [TCMDC-136021] :: 8.301%

Sure, the documented % Inhibition for CCN(CC)S(=O)(=O)n1ncc2c3c(N)nc(N)nc3ccc21 [TCMDC-137302] is -23.31%

Looking up COc1ccc(-c2nc(NC(=O)Cc3coc4cc(OC)ccc34)sc2C)cc1 [TCMDC-124497] , I found its % Inhibition recorded as 27.62%

Lab note: Cc1cc(=O)c(-c2ccc(Oc3ccc(C(F)(F)F)cc3)cc2)c(C)n1O [TCMDC-138136] gave % Inhibition of 12.43%

GET /value?item= Cc1cc(=O)c2cc(-c3ccc(OC(F)(F)F)cc3)ccc2[nH]1 [TCMDC-137042] &field=% Inhibition returns 32.81%
